- TEST: MTT assay on normal cells, GES-1
- Assay type: cell-based
- TEST SETTINGS: GES-1 cells (normal gastric epithelial cell line), normal human gastric epithelial cell line, read-out: inhibitory effect / cytotoxicity against GES-1
pIC50: −log10 of the molar value.
MEASURE NAME: pIC50

Using the record for Cc1ccc(S(=O)(=O)NCc2cn(Cc3cccc(Oc4ccccc4)c3)nn2)cc1 [11f] , report its pIC50.
< 4.19

---

Could you please report measured melting point for the items listed next?

Below are some compounds; for each one, tell me its melting point.
1. O=S(=O)(NCc1cn(Cc2cccc(Oc3ccccc3)c2)nn1)c1ccc(Br)s1 [11c]
2. O=S(=O)(NCc1cn(Cc2cccc(Oc3ccccc3)c2)nn1)c1ccccc1Cl [11i]
3. O=S(=O)(NCc1cn(Cc2cccc(Oc3ccccc3)c2)nn1)c1ccccc1 [11e]
4. Cc1ccc(S(=O)(=O)NCc2cn(Cc3cccc(Oc4ccccc4)c3)nn2)cc1 [11f]
5. Cc1ccc(S(=O)(=O)NCc2cn(Cc3cccc(C)c3)nn2)cc1 [11k]
6. O=S(=O)(NCc1cn(Cc2cccc(Oc3ccccc3)c2)nn1)c1cccs1 [11a]
7. CC(C)(C)c1ccc(S(=O)(=O)NCc2cn(Cc3cccc(Oc4ccccc4)c3)nn2)cc1 [11g]

["111 to 112 °C", "97 to 99 °C", "127 to 130 °C", "118 to 121 °C", "145 to 148 °C", "104 to 106 °C", "137 to 139 °C"]

Using the record for COc1cccc(Cn2cc(CNS(=O)(=O)c3ccc(C)cc3)nn2)c1 [11l] , report its melting point.
112 to 114 °C
